Target: Klenow fragment lacking exonuclease activity (KF exo−) (Escherichia coli, UniProt P00582, D355A/E357A)
Construct: enzyme solution of the Klenow fragment lacking exonuclease activity (KF exo^−, Amersham USB); purchased Amersham USB
Sequence (P00582 324-928 D355A/E357A): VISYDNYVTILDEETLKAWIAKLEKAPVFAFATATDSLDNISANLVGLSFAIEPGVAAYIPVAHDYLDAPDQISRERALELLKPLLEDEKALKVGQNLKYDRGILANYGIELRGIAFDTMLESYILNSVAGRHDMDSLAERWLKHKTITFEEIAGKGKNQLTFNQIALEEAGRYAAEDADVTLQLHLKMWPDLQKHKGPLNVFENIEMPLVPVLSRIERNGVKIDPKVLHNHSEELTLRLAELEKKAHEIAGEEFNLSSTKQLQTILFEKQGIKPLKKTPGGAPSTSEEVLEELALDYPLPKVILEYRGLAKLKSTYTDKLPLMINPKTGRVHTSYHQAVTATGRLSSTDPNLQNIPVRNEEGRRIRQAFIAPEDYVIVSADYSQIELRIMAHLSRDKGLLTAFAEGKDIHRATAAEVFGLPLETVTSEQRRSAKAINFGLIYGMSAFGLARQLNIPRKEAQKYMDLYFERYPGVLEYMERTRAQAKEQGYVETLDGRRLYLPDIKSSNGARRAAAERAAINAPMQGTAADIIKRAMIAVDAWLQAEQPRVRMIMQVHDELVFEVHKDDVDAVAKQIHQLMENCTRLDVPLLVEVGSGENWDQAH
Type: biochemical, E. coli
Details: template (N) = Ds, temp35N-1; 37° C.
# cutoff 200 µM applies to Km; >= gives 1.0, < gives 0.0

> print(dat)
                                   compound  class.name
1  CC#Cc1cc(C=O)n([C@H]2C[C@H](O)[C@@H](COP(=O)(O)OP(=O)(O)OP(=O)(O)O)O2)c1         0.0
2  O=Cc1cccn1[C@H]1C[C@H](O)[C@@H](COP(=O)(O)OP(=O)(O)OP(=O)(O)O)O1         1.0
3  O=P(O)(O)OP(=O)(O)OP(=O)(O)OC[C@H]1O[C@@H](n2cnc3c(-c4cccs4)ccnc32)C[C@@H]1O         0.0
4  Cc1cn([C@H]2C[C@H](O)[C@@H](COP(=O)(O)OP(=O)(O)OP(=O)(O)O)O2)c(=O)[nH]c1=O [dTTP, reference compound]         1.0
5  Nc1ncnc2c1ncn2[C@H]1C[C@H](O)[C@@H](COP(=O)(O)OP(=O)(O)OP(N)(=O)O)O1         0.0
6  Nc1ccn([C@H]2C[C@H](O)[C@@H](COP(=O)(O)OP(=O)(O)OP(=O)(O)O)O2)c(=O)n1 [dCTP, reference compound]         1.0
7  NP(=O)(O)OP(=O)(O)OP(=O)(O)OC[C@H]1O[C@@H](n2cnc3c(-c4cccs4)ccnc32)C[C@@H]1O         0.0
